Taken from ChEMBL document CHEMBL3885861.

species: Rattus norvegicus; assay: Open TG-GATES - Regimen: Daily Repeat; format: toxicity, organism-based, Sprague-Dawley; design: regimen Daily Repeat, gender Male, age 6 weeks; details: in vivo, po, 1000 mg/kg, 72 h, tissue Plasma, route gavage, dose level High, time 3 day
Property: PL; scope: individual molecules

smiles_repr	PL / mg/dL
CNC(=C[N+](=O)[O-])NCCSCc1ccc(CN(C)C)o1	148.4
COC(=O)C1=C(C)NC(C)=C(C(=O)OC)C1c1ccccc1[N+](=O)[O-]	123
O=C(OC[C@H]1O[C@@H](OC(=O)c2cc(O)c(O)c(OC(=O)c3cc(O)c(O)c(O)c3)c2)[C@H](OC(=O)c2cc(O)c(O)c(OC(=O)c3cc(O)c(O)c(O)c3)c2)[C@@H](OC(=O)c2cc(O)c(O)c(OC(=O)c3cc(O)c(O)c(O)c3)c2)[C@@H]1OC(=O)c1cc(O)c(O)c(OC(=O)c2cc(O)c(O)c(O)c2)c1)c1cc(O)c(O)c(OC(=O)c2cc(O)c(O)c(O)c2)c1	152.8
CN/C(=N/CCSCc1nc[nH]c1C)NC#N	156.6
Cc1nnc2n1-c1ccc(Cl)cc1C(c1ccccc1Cl)=NC2	157
CCOc1ccc(NC(C)=O)cc1	202.4

----------
Property: PL; scope: individual molecules
organism: Rattus norvegicus; assay: Open TG-GATES - Regimen: Single; format: toxicity, organism-based, Sprague-Dawley; parameters: regimen Single, gender Male, age 6 weeks; details: in vivo, po, 0 mg/kg, 6 h, tissue Plasma, route gavage, dose level Control
readout_name: PL (mg/dL)

molecule	readout_name	result_value
CCOc1ccc(NC(C)=O)cc1	PL	142
Brc1ccccc1	PL	149.2
CN(C)CCC(c1ccc(Cl)cc1)c1ccccn1 (stereo unspecified)	PL	135.2
Nc1c2c(nc3ccccc13)CCCC2	PL	137.4
CCCc1cc(=O)[nH]c(=S)[nH]1	PL	136.6
O=C(OC[C@H]1O[C@@H](OC(=O)c2cc(O)c(O)c(OC(=O)c3cc(O)c(O)c(O)c3)c2)[C@H](OC(=O)c2cc(O)c(O)c(OC(=O)c3cc(O)c(O)c(O)c3)c2)[C@@H](OC(=O)c2cc(O)c(O)c(OC(=O)c3cc(O)c(O)c(O)c3)c2)[C@@H]1OC(=O)c1cc(O)c(O)c(OC(=O)c2cc(O)c(O)c(O)c2)c1)c1cc(O)c(O)c(OC(=O)c2cc(O)c(O)c(O)c2)c1	PL	131.8

----------
Property: WBC; scope: individual molecules
organism: Rattus norvegicus; assay: Open TG-GATES - Regimen: Daily Repeat; assay type: toxicity, organism-based, Sprague-Dawley; set-up: regimen Daily Repeat, gender Male, age 6 weeks; conditions: in vivo, po, 100 mg/kg, […], tissue Blood, route gavage, dose level Low, time 28 day

smiles_repr	WBC [x10_2/uL]
Cc1nnc2n1-c1ccc(Cl)cc1C(c1ccccc1Cl)=NC2	93.4
COC(=O)C1=C(C)NC(C)=C(C(=O)OC)C1c1ccccc1[N+](=O)[O-]	96
CCOc1ccc(NC(C)=O)cc1	92.4
CNC(=C[N+](=O)[O-])NCCSCc1ccc(CN(C)C)o1	119.7
CN/C(=N/CCSCc1nc[nH]c1C)NC#N	137.9
O=C(OC[C@H]1O[C@@H](OC(=O)c2cc(O)c(O)c(OC(=O)c3cc(O)c(O)c(O)c3)c2)[C@H](OC(=O)c2cc(O)c(O)c(OC(=O)c3cc(O)c(O)c(O)c3)c2)[C@@H](OC(=O)c2cc(O)c(O)c(OC(=O)c3cc(O)c(O)c(O)c3)c2)[C@@H]1OC(=O)c1cc(O)c(O)c(OC(=O)c2cc(O)c(O)c(O)c2)c1)c1cc(O)c(O)c(OC(=O)c2cc(O)c(O)c(O)c2)c1	142.1
